Every entry's value here was drawn from BindingDB's records for doi:10.7270/Q2028PXQ.

# ASSAYED SYSTEM: Steroidogenic factor 1 (Homo sapiens, UniProt Q13285)
# Sequence (Q13285 whole entry): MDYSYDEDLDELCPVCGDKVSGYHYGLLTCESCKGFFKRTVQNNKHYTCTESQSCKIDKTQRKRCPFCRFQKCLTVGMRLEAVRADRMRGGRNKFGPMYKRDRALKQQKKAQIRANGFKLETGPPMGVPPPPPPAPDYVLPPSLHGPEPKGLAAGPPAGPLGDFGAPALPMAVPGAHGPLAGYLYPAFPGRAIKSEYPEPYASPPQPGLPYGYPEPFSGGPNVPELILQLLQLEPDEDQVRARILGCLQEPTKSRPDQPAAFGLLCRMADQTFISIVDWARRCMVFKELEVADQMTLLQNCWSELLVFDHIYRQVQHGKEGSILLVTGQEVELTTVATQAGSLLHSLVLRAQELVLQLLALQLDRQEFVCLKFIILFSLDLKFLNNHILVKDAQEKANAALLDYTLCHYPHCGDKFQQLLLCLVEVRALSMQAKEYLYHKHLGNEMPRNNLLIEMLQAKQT
# ASSAY EXPLANATION: SF-1 driven luciferase reporter response, dose response, counter-screen for RORA activator project, CHO-K1 cells (AID 695)
Please respond with Satisfied when measured EC50 is strictly beneath 1000 nM, and with Not satisfied in all other cases.

Take the compound Cc1c(C(=O)OCC2CCCO2)[nH]c2c1C(=O)CC(c1ccco1)C2 (centres undefined) and say whether its EC50 is less than 1000 nM.
Not satisfied

Take the compound `CCN(CC)C(=O)Oc1ccc2c(=O)c(-c3ccccc3)coc2c1` and say whether its EC50 is less than 1000 nM.
Satisfied

Take the compound `O=C(c1ccc(-c2nnc(-c3ccccc3)o2)cc1)N1CCCCCC1` and say whether its EC50 is less than 1000 nM.
Satisfied
